Entry source: patent US20260209301A1

- target under test: T1, human GalR1 (human, UniProt P47211 1-349)
- T1 sequence (looked up): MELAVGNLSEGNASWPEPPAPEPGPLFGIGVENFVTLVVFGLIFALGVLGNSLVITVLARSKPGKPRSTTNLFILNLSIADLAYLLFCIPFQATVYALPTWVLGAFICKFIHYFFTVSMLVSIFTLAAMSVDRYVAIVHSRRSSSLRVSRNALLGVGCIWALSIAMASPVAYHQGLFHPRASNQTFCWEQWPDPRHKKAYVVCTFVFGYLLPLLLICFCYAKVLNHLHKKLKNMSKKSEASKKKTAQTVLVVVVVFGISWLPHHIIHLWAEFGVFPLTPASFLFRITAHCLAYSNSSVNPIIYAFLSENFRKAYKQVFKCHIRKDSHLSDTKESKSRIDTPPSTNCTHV
- assay: cell-based or functional assay
No end group written: not given here.
reported metric: Beta Arrestin IA (%)

[
  {
    "binder": "RGRGNWTLNSAGYLLGPVLPPPALALA [M1145]",
    "Beta Arrestin IA (%)": 24.5
  },
  {
    "binder": "WTLNSAGYLLGPHAIDNHRSFHDKYGLA [Galanin 2-29 (rat)]",
    "Beta Arrestin IA (%)": 67.2
  }
]

(1) GWTLNSAGYLLGPQPPGFSPFR [M617]
(2) WTLNSAGYLLGPKKKKK (also: PEG (dPEG24) on one lysine, site not given here) [Nax409-9]
Data request: // compare measured Beta Arrestin IA (%) between 1 and 2 ; output the lower one Answer format: the label of the selected item.
Data returned: 2
(2: 7%, 1: 99%)
